Data origin, for the record: patent US12453774B2

Test system: CD8+ T cells
Format: cell-based, human
measurement-type: Multiple (testing/irrelevant)

Recorded result, `VTVGAVGVGK` , Multiple (testing/irrelevant): 4

Recorded result, `VTGAVGVGK` , Multiple (testing/irrelevant): 46

Recorded result, `STIDESPIFK` , Multiple (testing/irrelevant): 4

Recorded result, `VTVGARGVGK` , Multiple (testing/irrelevant): 5

Recorded result, `VTVGAAGVGK` , Multiple (testing/irrelevant): 9

Recorded result, `RTIEQLTLK` , Multiple (testing/irrelevant): 2

Recorded result, `VTVGADGVGK` , Multiple (testing/irrelevant): 12

Recorded result, `VVVGAGDVGK` , Multiple (testing/irrelevant): 16

Recorded result, `TTAPFLSGK` , Multiple (testing/irrelevant): 6
